test-target: A1-AdoR (Cavia porcellus, UniProt P47745)
Sequence (P47745 whole entry): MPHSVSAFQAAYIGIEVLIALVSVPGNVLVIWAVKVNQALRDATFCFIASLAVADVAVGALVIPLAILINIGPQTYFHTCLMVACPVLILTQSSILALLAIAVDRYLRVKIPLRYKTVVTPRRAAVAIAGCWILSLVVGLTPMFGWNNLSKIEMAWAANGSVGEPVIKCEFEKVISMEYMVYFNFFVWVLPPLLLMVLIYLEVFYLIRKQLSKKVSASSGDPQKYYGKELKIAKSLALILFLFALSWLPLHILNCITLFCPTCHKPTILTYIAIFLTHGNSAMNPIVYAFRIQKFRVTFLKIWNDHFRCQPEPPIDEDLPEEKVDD
test-summary: 3H-CPX binding to guinea pig forebrain membranes
recorded-conditions: Ki for reduction of 3H-CPX binding, presence of 1 mM GTP
outcome-measure: Ki (nM)
Respond with the bare value in nM.

Give its Ki value. Item: CNC(=O)OC[C@H]1OC(n2cnc3c(N[C@@H]4CCOC4)ncnc32)[C@H](O)[C@@H]1O (stereo partly shown) 2100

----------
test-target: Adenosine A1 receptor (Cavia porcellus)
Construct: from tissue; host or cells: guinea pig forebrain membranes
Sequence (P47745 whole entry): as above
test-summary: Affinity binding (Ki) of Tables 4 and 5
recorded-conditions: Table 4; read-out: Ki low
pKi: −log10 of the molar value.
Would you please tag the item satisfied when its pKi is 6 or above, and not satisfied when it is below?

# example entries with known answers
{"compound": "CNC(=O)OC[C@H]1O[C@@H](n2cnc3c(N[C@@H]4CCOC4)ncnc32)[C@H](O)[C@@H]1O [compound 6]", "category-label": "not satisfied"}
{"compound": "CNC(=S)OC[C@H]1O[C@@H](n2cnc3c(N[C@@H]4CCOC4)ncnc32)[C@H](O)[C@@H]1O [Compound 45 of Example 2]", "category-label": "satisfied"}
{"compound": "O[C@@H]1[C@H](O)[C@@H](CSc2ccccc2F)O[C@H]1n1cnc2c(N[C@@H]3CCOC3)ncnc21 [Compound 21 of Example 4]", "category-label": "satisfied"}

Let us examine a further case.
Can CNC(=S)OC[C@H]1O[C@@H](n2cnc3c(N[C@@H]4CCOC4)nc(Cl)nc32)[C@H](O)[C@@H]1O [Compound 81 of Example 2] be said to have pKi at or above 6? satisfied
